Biological target: T1, human IL-2Rα (human, UniProt P01589 22-240, limits assumed)
T1 construct: recombinant protein; also called hu IL-2R; human IL-2Ra
T1 sequence: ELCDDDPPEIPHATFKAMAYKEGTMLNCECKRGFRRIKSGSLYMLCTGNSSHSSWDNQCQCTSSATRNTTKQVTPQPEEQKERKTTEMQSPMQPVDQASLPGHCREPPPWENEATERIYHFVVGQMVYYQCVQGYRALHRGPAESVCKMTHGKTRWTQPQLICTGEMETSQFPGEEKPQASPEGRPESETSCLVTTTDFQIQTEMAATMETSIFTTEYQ
Assay: SPR, P.E. on immobilised antigen
Recorded koff values for a group of binders are listed next.
Give the quantity in s⁻¹, number only.

Here is how some binders turned out for koff.
[
  {
    "binder": "FJ1427_P035MP05H09 (VHH, periplasmic extract; also called clone nr) VHH: QLQLVESGGDLVQPGGSLRLSCTASGLTFDGYAIGWFRQAPGKEREGVSYITGSNGSTYYIDSVKGRFTISSDIAKSTVYLQMNTLKPEDTAVYYCAVDRLGSRGLYASSWWRSGDMDLWGKGTLVTVSS",
    "koff / s⁻¹": 0.00105
  },
  {
    "binder": "FJ1427_P035MP05D10 (VHH, periplasmic extract; also called clone nr; 460) VHH: QVQLVESGGGLVQAGGSLRLSCTASGLTFDGYAIGWFRQAPGKEREGVSYITGSDGSTYYRDSVKGRFTISSDNAKSTVYLQMNTLKPEDTAVYYCAVDRLGSRGLYASSWWRSGDMDLWGKGTLVTVSS",
    "koff / s⁻¹": 0.00108
  }
]

Continue with the binder presented below.
INPUT: Look up koff of FJ1427_P035MP01H07 (VHH, periplasmic extract; also called clone nr; 56) VHH: EVQLVESGGGLVQAGGSLRLSCAASGRTLSGYAMAWFRQPPDKGREFVTAISSSGIVTHVLDSVKGRFTISRDNAKNTVYLQMNSLQPEDTALYFCAATASSYSDYEANYNYWGQGTLVTVSS and report it.
OUTPUT: 0.00112
